- system_name: α4β2 subtype of nicotinic acetylcholine receptors (Rattus norvegicus, UniProt P09483+P12390)
- Construct: rat brain membrane obtained from whole homogenized brain; from tissue; host or cells: whole brain of Fischer-344 male rats, membrane fraction
- Sequence (P09483 31-630): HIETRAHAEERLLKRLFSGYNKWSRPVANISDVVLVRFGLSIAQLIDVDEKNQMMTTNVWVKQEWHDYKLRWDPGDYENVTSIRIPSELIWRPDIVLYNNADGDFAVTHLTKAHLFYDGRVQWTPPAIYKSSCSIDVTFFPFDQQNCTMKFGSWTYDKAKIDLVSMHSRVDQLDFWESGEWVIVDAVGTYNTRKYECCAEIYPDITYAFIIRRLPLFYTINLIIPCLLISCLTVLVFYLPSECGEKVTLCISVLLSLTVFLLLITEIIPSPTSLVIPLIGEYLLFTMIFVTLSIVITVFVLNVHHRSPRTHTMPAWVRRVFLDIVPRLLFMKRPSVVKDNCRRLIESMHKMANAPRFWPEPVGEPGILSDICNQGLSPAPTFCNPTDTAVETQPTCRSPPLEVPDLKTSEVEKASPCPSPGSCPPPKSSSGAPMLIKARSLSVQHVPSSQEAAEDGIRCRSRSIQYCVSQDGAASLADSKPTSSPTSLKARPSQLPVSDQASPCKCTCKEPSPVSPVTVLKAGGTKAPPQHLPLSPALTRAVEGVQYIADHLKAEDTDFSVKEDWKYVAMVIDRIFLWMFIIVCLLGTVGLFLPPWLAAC
- Sequence (P12390 25-500): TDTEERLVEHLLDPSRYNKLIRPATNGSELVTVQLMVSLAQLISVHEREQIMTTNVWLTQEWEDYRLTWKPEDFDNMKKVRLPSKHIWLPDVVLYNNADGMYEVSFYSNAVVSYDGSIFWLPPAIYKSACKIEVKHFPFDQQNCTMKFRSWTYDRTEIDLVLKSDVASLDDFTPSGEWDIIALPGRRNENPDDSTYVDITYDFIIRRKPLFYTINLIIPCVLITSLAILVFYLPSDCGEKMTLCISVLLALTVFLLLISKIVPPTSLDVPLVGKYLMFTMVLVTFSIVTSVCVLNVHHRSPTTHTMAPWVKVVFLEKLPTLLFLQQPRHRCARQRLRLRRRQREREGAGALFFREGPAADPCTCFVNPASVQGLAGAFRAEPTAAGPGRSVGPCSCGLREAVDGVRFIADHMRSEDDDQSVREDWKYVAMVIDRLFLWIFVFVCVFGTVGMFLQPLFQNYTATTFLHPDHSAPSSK
- protocol_description: Binding assay at α4β2 subtype of nicotinic acetylcholine receptors ([3H]-cytisine, rat brain membrane)
- cond: read-out: control % of [3H]-cytisine binding
remaining activity at 1 µM values, listed per item
All answers are understood in %, so give the number only.

Known results for compounds:
* N=c1ncccn1CCc1ccc(Cl)nc1 | 72
* N=c1ccc(Cl)nn1CCc1ccc(Cl)nc1 | 60
* Cc1cn(CCc2ccc(Cl)nc2)c(=N)s1 | 77
* N=C1SCCN1CC(O)c1ccc(Cl)nc1 (centres unmarked) | 97

Next up:
Lab note: Nc1nccn1CCc1cncnc1Cl gave remaining activity at 1 µM of 61

###

- system_name: α4β2 subtype of nicotinic acetylcholine receptors (Rattus norvegicus, UniProt P09483+P12390)
- Construct: rat brain membrane obtained from whole homogenized brain; from tissue; host or cells: whole brain of Fischer-344 male rats, membrane fraction
- protocol_description: Binding assay at α4β2 subtype of nicotinic acetylcholine receptors ([3H]-cytisine, rat brain membrane)
- cond: 10 μM of test compound; rat brain membrane; read-out: control % of [3H]-cytisine binding
- Protocol: The methods for evaluating the binding capabilities of the compounds at nicotinic acetylcholine receptors are different by subtypes of receptors. […] Suspensions of membrane pellets containing 400-600 μg of protein were added to test tubes containing test compounds and [^3H]-cytisine (2 nM) in a final volume of 200 μl and incubated for 75 minutes in ice-cooled bath. […] The filters were counted in 3 ml of clearsol I (Nacalai Tesque Inc.). […]
Please use yes (1) for remaining activity at 10 µM under 80% and no (0) for everything else, ties included.

See these solved cases before continuing.
• N=C1SCCN1CC(=O)c1ccccc1 [Compound 1, 2-imino-3-phenacylthiazolidine] = yes (1)
• Nc1nccn1CCc1ccc(O)cc1 [Compound 26] = yes (1)
• COc1ccc(Sc2ccccc2CCn2ccnc2N)cc1 [Compound 33] = no (0)

Find out if reported remaining activity at 10 µM for Nc1nccn1CCc1ccccn1 [Compound 19, 2-amino-1-[2-(2-pyridyl)ethyl]imidazole] is less than 80%
no (0)

Find out if reported remaining activity at 10 µM for CC(=O)Cn1ccsc1=N [Compound 2, 3-acetonyl-2-imino-2,3-dihydrothiazole] is less than 80%
no (0)

Find out if reported remaining activity at 10 µM for Nc1nccn1CCc1ccncc1 [Compound 20, 2-amino-1-[2-(4-pyridyl)ethyl]imidazole] is less than 80%
no (0)

Find out if reported remaining activity at 10 µM for Nc1nccn1CCc1cnccn1 [Compound 31] is less than 80%
yes (1)

Find out if reported remaining activity at 10 µM for Nc1nccn1CCc1ccccc1Sc1ccc(O)cc1 [Compound 32] is less than 80%
yes (1)

###

- system_name: α4β2 subtype of nicotinic acetylcholine receptors (Rattus norvegicus, UniProt P09483+P12390)
- Construct: rat brain membrane obtained from whole homogenized brain; from tissue; host or cells: whole brain of Fischer-344 male rats, membrane fraction
- protocol_description: Binding assay at α4β2 subtype of nicotinic acetylcholine receptors ([3H]-cytisine, rat brain membrane)
pKi: −log10 of the molar value.
Assign class by pKi: not lower than 8 means YES; lower than 8 means NO.

See these solved cases before continuing.
- Nc1nccn1CCc1ccc(Cl)nc1: YES
- N=C1SCCN1CCc1ccc(Cl)nc1: YES
- Cc1csc(=N)n1CCc1ccc(Cl)nc1: YES
- N=C1SCCN1CC(=O)c1ccc(Cl)nc1: NO
- N=C1NCCCN1CCc1ccc(Cl)nc1: YES
- Cc1nc(N)n(CCc2ccc(Cl)nc2)c1C: NO

Is it the case that Cc1sc(=N)n(CCc2ccc(Cl)nc2)c1C has pKi reaching or exceeding 8?
NO

Is it the case that CC(Cn1ccsc1=N)c1ccc(Cl)nc1 (centres unmarked) has pKi reaching or exceeding 8?
NO

Is it the case that N=c1sccn1CCc1cnc(Cl)s1 has pKi reaching or exceeding 8?
NO

Is it the case that Nc1nccn1CCc1cnc(Cl)c(Cl)c1 has pKi reaching or exceeding 8?
YES

Is it the case that N=c1ccccn1CCc1ccc(Cl)nc1 has pKi reaching or exceeding 8?
NO

###

- system_name: human α4β2 subtype of nicotinic acetylcholine receptors (Homo sapiens, UniProt P17787+P43681)
- Sequence (P43681 29-627 limits assumed): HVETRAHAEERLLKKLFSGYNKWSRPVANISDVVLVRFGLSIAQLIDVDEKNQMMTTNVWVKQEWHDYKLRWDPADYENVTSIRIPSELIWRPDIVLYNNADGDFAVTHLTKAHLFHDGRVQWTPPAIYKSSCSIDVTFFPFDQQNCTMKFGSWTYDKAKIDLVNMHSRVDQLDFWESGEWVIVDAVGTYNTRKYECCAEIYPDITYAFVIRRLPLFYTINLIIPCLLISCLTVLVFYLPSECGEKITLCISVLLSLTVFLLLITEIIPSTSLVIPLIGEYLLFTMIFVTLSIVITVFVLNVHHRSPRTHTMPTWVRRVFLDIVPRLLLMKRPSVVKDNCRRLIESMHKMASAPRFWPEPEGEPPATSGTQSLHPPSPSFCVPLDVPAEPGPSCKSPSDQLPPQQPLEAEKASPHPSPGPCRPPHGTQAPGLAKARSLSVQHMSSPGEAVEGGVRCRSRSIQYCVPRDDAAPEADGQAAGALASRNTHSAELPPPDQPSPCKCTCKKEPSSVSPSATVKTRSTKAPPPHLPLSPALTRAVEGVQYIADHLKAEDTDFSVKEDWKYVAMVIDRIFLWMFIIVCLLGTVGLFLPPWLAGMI
- Sequence (P17787 26-502): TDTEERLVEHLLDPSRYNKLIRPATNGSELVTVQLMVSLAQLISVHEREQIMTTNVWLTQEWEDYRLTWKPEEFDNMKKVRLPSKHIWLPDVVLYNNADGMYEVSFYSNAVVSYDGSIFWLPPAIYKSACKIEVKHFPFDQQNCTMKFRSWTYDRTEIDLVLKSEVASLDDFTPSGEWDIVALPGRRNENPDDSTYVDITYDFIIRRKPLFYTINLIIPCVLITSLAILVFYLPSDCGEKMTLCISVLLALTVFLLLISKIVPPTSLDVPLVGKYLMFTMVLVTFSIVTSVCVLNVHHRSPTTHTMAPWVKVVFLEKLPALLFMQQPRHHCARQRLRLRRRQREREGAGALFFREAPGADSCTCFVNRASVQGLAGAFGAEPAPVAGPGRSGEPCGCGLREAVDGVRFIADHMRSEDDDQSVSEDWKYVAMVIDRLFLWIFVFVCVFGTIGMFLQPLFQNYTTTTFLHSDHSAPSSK
- protocol_description: Agonist activity at human α4β2 nicotinic acetylcholine receptors expressed in Xenopus oocytes (membrane potential holding method)
- cond: Xenopus oocytes, held at −50 mV, peak inward current; read-out: Agonist activity (ED50)
- Protocol: The agonist effect in human α4β2 subtype of nicotinic acetylcholine receptors are examined by using human nicotinic acetylcholine receptors prepared in oocytes of Xenopus laevis, which is injected with cRNA from the corresponding cloning cDNA of human α4 and β2 subunits of nicotinic acetylcholine receptors, and to measure the expression of the electric response by adding the test compounds to perfusion solution by means of membrane potential holding method. […]
Please use MET for EC50 under 8 µM and NOT MET for everything else, ties included.

See these solved cases before continuing.
• Nc1nccn1CCc1cncnc1 [Compound 29] = MET
• Nc1nccn1CCc1cccnn1 [Compound 30] = NOT MET
• Nc1nccn1CCc1cccnc1 [Compound 14, 2-amino-1-[2-(3-pyridyl)ethyl]imidazole] = MET
• Nc1nccn1CCc1cnc(Cl)s1 [Compound 23] = NOT MET
• Cc1cncc(CCn2ccnc2N)c1 [Compound 27] = MET
• Nc1nccn1CCc1cncc(Br)c1 [Compound 25] = MET

Find out if reported EC50 for Cc1ccc(CCn2ccnc2N)cn1 [Compound 11] is less than 8 µM
MET

Find out if reported EC50 for Nc1nccn1CCc1cnc(Cl)c(Cl)c1 [Compound 13] is less than 8 µM
MET

Find out if reported EC50 for Nc1nccn1CCc1ccnnc1 [Compound 34] is less than 8 µM
NOT MET

###

log10 of Ki values, listed per item
- system_name: α4β2 subtype of nicotinic acetylcholine receptors (Rattus norvegicus, UniProt P09483+P12390)
- Construct: rat brain membrane obtained from whole homogenized brain; from tissue; host or cells: whole brain of Fischer-344 male rats, membrane fraction
- protocol_description: Binding assay at α4β2 subtype of nicotinic acetylcholine receptors ([3H]-cytisine, rat brain membrane)
- cond: rat brain membrane, [3H]-cytisine 2 nM; read-out: Affinities for receptors Ki α4β2
Please note: log10 values; quantity Ki; unit nM.

- Nc1nccn1CCc1ccnnc1: 1.83
- Nc1nccn1CCc1cccnn1: 1.60

Next up:
Lab note: Nc1nccn1CCc1cncc(Br)c1 gave log10 of Ki of 0.30

###

- system_name: α4β2 subtype of nicotinic acetylcholine receptors (Rattus norvegicus, UniProt P09483+P12390)
- Construct: rat brain membrane obtained from whole homogenized brain; from tissue; host or cells: whole brain of Fischer-344 male rats, membrane fraction
- protocol_description: Binding assay at α4β2 subtype of nicotinic acetylcholine receptors ([3H]-cytisine, rat brain membrane)
- cond: 1 μM of test compound; rat brain membrane; read-out: control % of [3H]-cytisine binding
- Protocol: The methods for evaluating the binding capabilities of the compounds at nicotinic acetylcholine receptors are different by subtypes of receptors. […] Suspensions of membrane pellets containing 400-600 μg of protein were added to test tubes containing test compounds and [^3H]-cytisine (2 nM) in a final volume of 200 μl and incubated for 75 minutes in ice-cooled bath. […] The filters were counted in 3 ml of clearsol I (Nacalai Tesque Inc.). […]
property: remaining activity at 1 µM

- Nc1nccn1CCc1cnccn1: 75%
- N=C1SCCN1CC(=O)c1ccccc1: 93%
- Nc1nccn1CCc1ccc(O)cc1: 93%

Next up:
Lab note: Nc1nccn1CCc1ccncc1 [Compound 20, 2-amino-1-[2-(4-pyridyl)ethyl]imidazole] gave remaining activity at 1 µM of 97%

###

- system_name: α1β1γδ subtype of nicotinic acetylcholine receptors (Rattus norvegicus, UniProt P18916+P25108+P25110)
- Sequence (P25109 24-501): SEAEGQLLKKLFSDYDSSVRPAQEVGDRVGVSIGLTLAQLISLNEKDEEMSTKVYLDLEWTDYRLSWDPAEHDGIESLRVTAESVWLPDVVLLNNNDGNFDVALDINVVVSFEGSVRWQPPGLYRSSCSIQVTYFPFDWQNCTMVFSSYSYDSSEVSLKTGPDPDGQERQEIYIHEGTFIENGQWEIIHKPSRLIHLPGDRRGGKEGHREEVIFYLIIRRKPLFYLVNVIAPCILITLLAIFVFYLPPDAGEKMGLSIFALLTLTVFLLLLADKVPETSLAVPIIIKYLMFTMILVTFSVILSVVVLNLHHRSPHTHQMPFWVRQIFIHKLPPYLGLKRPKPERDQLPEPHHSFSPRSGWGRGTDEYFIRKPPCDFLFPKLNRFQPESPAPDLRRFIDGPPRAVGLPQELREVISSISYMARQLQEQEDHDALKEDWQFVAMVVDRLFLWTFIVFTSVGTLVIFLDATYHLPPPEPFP
- Sequence (P25110 22-517): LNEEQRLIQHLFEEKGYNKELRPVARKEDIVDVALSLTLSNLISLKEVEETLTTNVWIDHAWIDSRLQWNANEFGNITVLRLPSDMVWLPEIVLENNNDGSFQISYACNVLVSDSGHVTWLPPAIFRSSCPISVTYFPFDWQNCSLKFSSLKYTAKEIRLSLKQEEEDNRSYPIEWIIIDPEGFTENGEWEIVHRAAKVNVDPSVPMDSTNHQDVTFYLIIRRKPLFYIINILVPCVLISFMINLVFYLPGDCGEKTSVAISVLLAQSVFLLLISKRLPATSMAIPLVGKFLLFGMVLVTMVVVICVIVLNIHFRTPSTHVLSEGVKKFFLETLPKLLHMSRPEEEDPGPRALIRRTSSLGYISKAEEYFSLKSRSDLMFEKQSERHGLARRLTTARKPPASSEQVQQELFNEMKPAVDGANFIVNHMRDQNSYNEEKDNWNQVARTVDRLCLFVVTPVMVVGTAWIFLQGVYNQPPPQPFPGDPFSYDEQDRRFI
- Sequence (P25108 21-457): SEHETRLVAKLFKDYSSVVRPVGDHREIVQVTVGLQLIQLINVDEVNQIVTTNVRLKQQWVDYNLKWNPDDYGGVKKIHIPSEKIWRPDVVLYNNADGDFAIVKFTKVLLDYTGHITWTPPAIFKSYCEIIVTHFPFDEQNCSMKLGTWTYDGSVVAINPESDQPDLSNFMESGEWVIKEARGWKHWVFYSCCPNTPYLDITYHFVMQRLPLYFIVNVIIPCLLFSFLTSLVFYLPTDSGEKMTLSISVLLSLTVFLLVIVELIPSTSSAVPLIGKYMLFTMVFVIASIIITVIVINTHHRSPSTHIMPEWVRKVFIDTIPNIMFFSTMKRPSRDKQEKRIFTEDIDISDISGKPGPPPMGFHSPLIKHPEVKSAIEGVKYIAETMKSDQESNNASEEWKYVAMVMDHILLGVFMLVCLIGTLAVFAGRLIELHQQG
- Sequence (P18916 23-519): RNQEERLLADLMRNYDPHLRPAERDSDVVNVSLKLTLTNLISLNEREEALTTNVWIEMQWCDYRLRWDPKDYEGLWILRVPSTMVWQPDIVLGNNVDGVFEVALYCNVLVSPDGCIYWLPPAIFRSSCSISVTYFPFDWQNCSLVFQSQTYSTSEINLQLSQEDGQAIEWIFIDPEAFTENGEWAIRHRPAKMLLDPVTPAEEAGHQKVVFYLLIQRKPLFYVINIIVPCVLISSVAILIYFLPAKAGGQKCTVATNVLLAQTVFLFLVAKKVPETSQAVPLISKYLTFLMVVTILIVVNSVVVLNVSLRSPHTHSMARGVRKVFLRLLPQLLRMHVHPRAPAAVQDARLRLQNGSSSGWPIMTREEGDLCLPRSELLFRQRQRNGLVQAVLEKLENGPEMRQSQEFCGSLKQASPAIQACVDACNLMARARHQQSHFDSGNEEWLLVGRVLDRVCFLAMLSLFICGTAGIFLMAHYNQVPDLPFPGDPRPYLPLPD
- protocol_description: biochemical
- Assay type: binding
- cond: read-out: control % of [3H]-α-Bgt binding
remaining activity at 1000 µM values, listed per item

- COc1ccc(Sc2ccccc2CCn2ccnc2N)cc1 [Compound 33]: 85%
- Nc1nccn1CCc1cnccn1 [Compound 31]: 53%
- N=c1ncccn1CCc1ccc(Cl)nc1 [Compound 3]: 39%
- Nc1nccn1CCc1ccc(O)cc1 [Compound 26]: 50%

Lab note: N=c1ccc(Cl)nn1CCc1ccc(Cl)nc1 [Compound 15] gave remaining activity at 1000 µM of 61%

Lab note: Nc1nccn1CCc1ccccc1Sc1ccc(O)cc1 [Compound 32] gave remaining activity at 1000 µM of 81%

Lab note: Nc1nccn1CCc1ccncc1 [Compound 20, 2-amino-1-[2-(4-pyridyl)ethyl]imidazole] gave remaining activity at 1000 µM of 90%

Lab note: Cc1cn(CCc2ccc(Cl)nc2)c(=N)s1 [Compound 6] gave remaining activity at 1000 µM of 61%

###

- system_name: α1β1γδ subtype of nicotinic acetylcholine receptors (Rattus norvegicus, UniProt P18916+P25108+P25110)
- protocol_description: biochemical
- cond: read-out: Affinities for receptors Ki α1β1γδ; rat muscle extract, [3H]-α-Bgt 1 nM
property: pKi
Reminder that pKi means the negative base-10 logarithm of the concentration expressed in mol/L.

Known results for compounds:
- Cc1cncc(CCn2ccnc2N)c1: 3.47
- Nc1nccn1CCc1ccc(Cl)nc1: 3.74
- CC(Cn1ccsc1=N)c1ccc(Cl)nc1 (stereo not drawn): 3.76
- Cc1cncc(CCn2ccsc2=N)c1: 4.03
- Cc1nc(N)n(CCc2ccc(Cl)nc2)c1C: 3.76

Lab note: N=c1sccn1CCc1ccc(Cl)nc1 gave pKi of 3.88

Lab note: Nc1nccn1CCc1ccnnc1 gave pKi of 2.90

Lab note: Cc1sc(=N)n(CCc2ccc(Cl)nc2)c1C gave pKi of 3.67

Lab note: Nc1nccn1CCc1cnc(Cl)s1 gave pKi of 4.36
